These data points were gathered from PubChem BioAssay.

experimentSummary: small-molecule microarray binders of probe aLefty2, primary screen, biochemical, biotinylated probe, 635/667 nm fluorescence (AID 1094);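 also: score merges spot fluorescence near 667 nm with spot signal-to-noise ratio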
experimentalParameters: higher = more signal
readoutLabel: composite z-score

[
  {
    "molecule": "COC(=O)CC=C1c2ccccc2[C@H](OC)[C@H]1C",
    "recordedNumber": -0.0732
  },
  {
    "molecule": "COC(=O)[C@@H]1CC[C@H](C)[C@@H](c2ccc(Br)cc2)N1",
    "recordedNumber": 0.195
  },
  {
    "molecule": "CC(C)(C)N1C(=O)[C@H]2[C@@H]3C(=CC[C@H]2C1=O)C(=O)[C@H]1O[C@H]1[C@H]3O",
    "recordedNumber": -0.338
  },
  {
    "molecule": "O=C1[C@H]2[C@H]3[C@H](O)[C@H](O)CC(=NOC[C@@H](O)COCc4ccco4)[C@@H]3CC[C@H]2C(=O)N1c1cccc(Oc2ccccc2)c1",
    "recordedNumber": 0.0474
  },
  {
    "molecule": "CC(CCN1CCc2nc(-c3ccccc3)c(-c3ccccc3)cc2C1)=NO[C@H](C)c1cn([C@H](CO)Cc2ccccc2)nn1",
    "recordedNumber": 0.0272
  },
  {
    "molecule": "CCO[C@H](c1cc(OC)cc([N+](=O)[O-])c1OC)[C@H](C)[C@@H](OC)[C@H](C)C=CCC(=O)OC",
    "recordedNumber": 0.0632
  },
  {
    "molecule": "CC(=O)OC[C@H]1O[C@H](C#CCCc2ccccc2)C=C[C@@H]1OC(C)=O",
    "recordedNumber": 0.0092
  },
  {
    "molecule": "COc1ccc(COC(=O)NN=C2C[C@@H](O)[C@@H](O)[C@@H]3[C@@H]4C(=O)N(c5cccc(Oc6ccccc6)c5)C(=O)[C@@H]4CC[C@H]23)cc1",
    "recordedNumber": 0.297
  },
  {
    "molecule": "CC1(C)O[C@H]2O[C@H]([C@H](O)CON=C3[C@H]4CCn5c(=O)n(-c6ccccc6)c(=O)n5[C@H]4[C@H](O)[C@@H]4O[C@H]34)[C@H](O)[C@H]2O1",
    "recordedNumber": -0.212
  },
  {
    "molecule": "COc1ccc2c(c1)O[C@@H](c1cccc(C(F)(F)F)c1)[C@H](O)C2=O",
    "recordedNumber": -0.261
  },
  {
    "molecule": "CCOC(=O)[C@H](Cc1ccccc1)NC(=O)CCC1CC(OC(=O)NCc2ccc3c(c2)OCO3)CC2(CCCC(COC(=O)NCCOc3ccccc3)O2)O1 (stereo partly specified)",
    "recordedNumber": -0.0446
  }
]
